Tested on: ATP;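 note: ATP exposure 15 min at 22 °C before imaging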
measurement.description: switch fluorescence ratio, 500 uM ATP over buffer (Cy3 cluster intensity, sum of 5 cycles each) (fold (ratio)); higher = stronger signal-on switching upon ATP binding; sequences stand for … in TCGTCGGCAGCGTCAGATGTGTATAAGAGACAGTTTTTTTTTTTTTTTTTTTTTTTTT…TC
protocol.conditions: aptamer strand: ATP DNA aptamer (quencher-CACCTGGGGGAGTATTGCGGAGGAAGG + anchor), 100 nM annealed; ATP concentration: 500 uM
switch fluorescence ratio by entry:

biosequence	switch fluorescence ratio
TTCTGCGCCC	2.52
GATTTTTAGC	1
TTATTATTT	0.994
CGCACTTGGG	0.993
AACGTGTTGT	1.02
TTAGTAATAT	1.17
AGTTAATGTT	1.01
CGTGCCAGCT	0.952
CAGCGGCTGT	0.966
GAAAAAAGGC	1.03
AAGGGACAGC	1.03
TTACATTTAT	1.02
AGGTATTAGG	0.988
TCTCGAGGGG	1
TTTTCCGTAT	1.18
AATTGGGTAT	1
TGAATTTAGC	1
GAGGGGGACT	1.13
GTGTTTAAA	0.962
TCTTTACAAA	1.03
GCTATTAGTG	0.989
AGAAATGGGA	0.987
AAGGGTGATG	1
TTTTCGGTTA	1.01
AAAAGGGTTG	0.99
GGTTTAGGCT	1.08
CCTGCCCTGT	1.11
TTAGAAGACT	1.08
ATAATTCGTG	1.01
ATTGTTGTAG	0.985
CGGTATTGGT	0.976
TATGGTGGGT	0.995
TAAGAAGGGG	1.02
TTTTATGGTT	0.997
GGTGGTAGGA	0.98
AACTTTAACT	1.04
AAAACTCTGT	1.04
CTCTGTCACG	1.11
GTCATTCCGC	1.65
CCAGGGAGCC	1.1
TGGGGAGCAT	1.01
AGGGTTACGA	0.976
ATACAGGGTG	1.24

====

Tested on: ATP;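 note: ATP exposure 15 min at 22 °C before imaging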
measurement.description: switch fluorescence ratio, 500 uM ATP over buffer (Cy3 cluster intensity, sum of 5 cycles each) (fold (ratio)); higher = stronger signal-on switching upon ATP binding; sequences stand for … in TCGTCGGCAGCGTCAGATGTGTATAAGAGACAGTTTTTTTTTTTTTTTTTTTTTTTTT…TC
protocol.conditions: aptamer strand: ATP DNA aptamer (quencher-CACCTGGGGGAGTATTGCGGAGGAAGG + anchor), 100 nM annealed; ATP concentration: 500 uM
switch fluorescence ratio by entry:

biosequence	switch fluorescence ratio
TTCTCTGTAA	2.66
GGGTGCGGAG	0.956
CTTGTCCAGC	1.04
GGGTTGATAG	1.01
TTGCTCTTGG	0.956
TTTTTGAATG	0.983
AATATATACT	1.04
ATACATATTT	1.03
AAATTGATCC	0.964
CTTGTATGGG	1.01
GACCACTTGA	1.01
AGTCGTTGGA	0.966
ACGGGGAGGT	0.981
GGGCCTCGGA	0.988
ATAAGAAGTG	1.05
TTAGGGCAGG	1.06
CGGGGGACGC	0.993
GTTAGCGCAT	1.04
GCGTGAAGAA	1.03
CGAGGGAACG	1
CGGGGGTTTT	0.994
GCCTGTAGGA	1.01
CGGTATCTGA	0.989
AGCTTGGGTT	0.98
CGATCCGTCC	1.09
GATGCAAGTG	1.07
GGGGGTGTCA	0.968
CTGATGGCGT	1
ATCCGGTCGG	1.03
CCTGGGGGGG	1.03
TGCTATGGGT	0.975
GGGTTGGGG	0.995
TGAGAGGCGA	1.01
GTGTAGGGTA	1.01
CAGAATGGGG	0.998
ATTAAGCCAC	1.12
TGTTAAAATC	0.984
GTAGGGGTCA	0.976
TAAAAGTTAT	1.01
CTAATGATGG	1.01
TCGGCATTAA	1.37
TGTAGCGGGG	0.994
TAGGGGGGGG	1.02

src = the supplement of paper PMC10126150
